Molecular target: T1, full-length mouse TF with a C-terminal FLAG tag on Flp-In-CHO cells (mouse, UniProt P20352 29-294)
T1 construct: also called CHO-mTF; mouse TF-positive CHO cells
Test: flow cytometry on CHO cells expressing mouse TF, MFI at 250 nM antibody
Measured Attribute: MFI at 250 nM
Give bare numbers.

Example entries and their recorded answers appear below.
1) 39A (antibody, human IgG1, V domains shown, Human IgG1; also called antibody designated 39A) VH: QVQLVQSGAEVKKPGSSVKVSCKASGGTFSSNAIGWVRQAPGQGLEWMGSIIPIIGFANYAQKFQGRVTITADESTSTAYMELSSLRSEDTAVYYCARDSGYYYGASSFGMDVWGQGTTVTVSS VL: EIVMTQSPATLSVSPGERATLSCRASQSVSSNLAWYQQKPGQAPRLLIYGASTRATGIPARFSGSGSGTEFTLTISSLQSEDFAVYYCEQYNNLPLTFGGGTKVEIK :: 3700
2) 54E (antibody, human IgG1, V domains shown, Human IgG1; also called antibody designated 54E) VH: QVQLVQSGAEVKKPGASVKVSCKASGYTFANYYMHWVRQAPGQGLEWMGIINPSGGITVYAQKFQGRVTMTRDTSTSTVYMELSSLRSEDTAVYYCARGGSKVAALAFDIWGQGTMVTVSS VL: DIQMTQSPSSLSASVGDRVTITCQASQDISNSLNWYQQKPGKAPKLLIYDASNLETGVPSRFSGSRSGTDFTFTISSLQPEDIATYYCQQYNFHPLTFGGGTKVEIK :: 2700
3) 43D (antibody, human IgG1, V domains shown, Human IgG1; also called antibody designated 43D) VH: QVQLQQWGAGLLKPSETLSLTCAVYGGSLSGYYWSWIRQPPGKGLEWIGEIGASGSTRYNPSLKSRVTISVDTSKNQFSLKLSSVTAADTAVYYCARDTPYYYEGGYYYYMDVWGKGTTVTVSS VL: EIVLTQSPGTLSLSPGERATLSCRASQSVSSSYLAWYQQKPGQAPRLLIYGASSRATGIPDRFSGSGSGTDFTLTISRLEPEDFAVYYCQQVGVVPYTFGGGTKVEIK :: 1.3e+07
4) 43D8 (antibody, human IgG1, V domains shown, Human IgG1; also called antibody designated 43D8) VH: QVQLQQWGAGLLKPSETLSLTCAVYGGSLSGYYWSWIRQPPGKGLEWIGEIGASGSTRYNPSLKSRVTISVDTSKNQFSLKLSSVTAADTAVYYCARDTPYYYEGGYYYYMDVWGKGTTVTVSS VL: EIVLTQSPGTLSLSPGERATLSCRASQSVSSSFLAWYQQKPGQAPRLLIYGAYSRATGIPDRFSGSGSGTDFTLTISRLEPEDFAVYYCQQAGVVPYTFGGGTKVEIK :: 2e+07

# evaluate next
Give the measured MFI at 250 nM of 43D7 (antibody, human IgG1, V domains shown, Human IgG1; also called antibody designated 43D7) VH: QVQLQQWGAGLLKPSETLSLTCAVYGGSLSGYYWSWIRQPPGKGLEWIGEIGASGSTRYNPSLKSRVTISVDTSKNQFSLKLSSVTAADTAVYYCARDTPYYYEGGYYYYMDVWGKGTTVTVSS VL: EIVLTQSPGTLSLSPGERATLSCRASDSVDSSYLAWYQQKPGQAPRLLIYGAFSRANGIPDRFSGSGSGTDFTLTISRLEPEDFAVYYCQQAGVVPYTFGGGTKVEIK .
1.8e+07
